Tested on: HeLa
assay_text: 48-hour IC50 by SRB, HeLa cervical carcinoma cells
Format: cell-based, human
conditions: Homo sapiens
pIC50: −log10 of the molar value.
outcome_measure: pIC50

Prompt: What does the record list as pIC50 for CO[C@H]1NC(=O)c2ccc(Br)n2[C@@H]1Cc1c[nH]c(=O)n1C [(+)-39, (+)-O-methyl-pre-agelastatin A] ?
Response: < 5.00

* * *

Provide the recorded pIC50 for the entries that follow.
System: U-937
assay_text: 48-hour IC50 by MTS, U-937 lymphoma cells
Type: cell-based, human
Procedure: Cells were grown in media supplemented with fetal bovine serum (FBS) and antibiotics (100 μg/mL penicillin and 100 U/mL streptomycin). […] Cells were incubated at 37° C. in a 5% CO2, 95% humidity atmosphere. In a 96-well plate, compounds were pre-added as DMSO stocks (1% final) in triplicate to achieve final concentrations of 1 nM to 10 μM on a half log scale. […] IC50 values were determined from three or more independent experiments using TableCurve (San Jose, Calif.).
Numbers only, as −log10 of the molar value.

>  <compound>
CN1C(=O)N[C@H]2[C@@H]3NC(=O)c4ccc(Br)n4[C@@H]3C[C@]21O [(−)-1, (−)-agelastatin A]

>  <pIC50>
7.17

$$$$
>  <compound>
O=C1N[C@H]2[C@@H]3NC(=O)c4ccc(Br)n4[C@@H]3C[C@@]2(O)N1 [(−)-4, (−)-agelastatin D]

>  <pIC50>
6.62

$$$$

With those in mind, consider the next compound.
Prompt: What does the record list as pIC50 for CO[C@@]12C[C@@H]3[C@@H](NC(=O)c4ccc(Br)n43)[C@@H]1NC(=O)N2C [(−)-5, (−)-agelastatin E] ?
Response: 5.59
